tested on: RAW-Dual; assay: NF-kB SEAP reporter activity, fold change vs agonist alone; higher = enhanced NF-kB activity; conditions: library stock concentration (final ~1000-fold dilution): 10 mM; cytotoxicity flag (confluency mask): cytotoxic (confluency <70% of control); agonist: MPLA (TLR4) […]
Whole data set: some 2,900 compounds, median “NF-kB SEAP reporter activity, fold change vs agonist alone” near 0.99, cut for the highest 2% near 2.6. The sample as a whole holds a higher share of the highest values than the screen did.
Binary call on NF-kB SEAP reporter activity with cut-off 1: strictly below means TRUE, and equality or higher means FALSE.

*Q* Determine if Cc1ccc(Oc2ccnc3cc(-c4cnn(C5CCNCC5)c4)ccc23)cc1 shows NF-kB SEAP reporter activity strictly lower than 1.
*A* TRUE

*Q* Let us now turn to CCN(CC)CCCCNc1ncc2cc(-c3cc(OC)cc(OC)c3)c(NC(=O)NC(C)(C)C)nc2n1
*A* FALSE

*Q* Let us now turn to CCCCc1nc2cc(/C=C/C(=O)NO)ccc2n1CCN(CC)CC
*A* FALSE

*Q* Let us now turn to O=C(N/N=C/c1ccc([N+](=O)[O-])o1)c1ccc(O)cc1
*A* FALSE

*Q* Let us now turn to Cl.Cl.Cn1cc(CNCC2CCN(c3ncc(C(=O)NO)cn3)CC2)c2ccccc21
*A* FALSE

*Q* Let us now turn to COC(=O)Nc1nc2ccc(C(=O)c3cccs3)cc2[nH]1
*A* FALSE

*Q* Let us now turn to C=CCNC1=C2CC(C)CC(OC)C(O)C(C)/C=C(\C)C(OC(N)=O)C(OC)/C=C\C=C(/C)C(=O)NC(=CC1=O)C2=O (configuration not stated)
*A* TRUE

*Q* Let us now turn to Nc1nc(Nc2ccc(S(N)(=O)=O)cc2)nn1C(=O)c1c(F)cccc1F
*A* FALSE

*Q* Let us now turn to O=C(/C=C/c1cncc(F)c1)c1c(-c2ccccc2)c2cc(Cl)ccc2[nH]c1=O
*A* TRUE

*Q* Let us now turn to NC(=O)N1CCC(CC(=O)N2CCC(C3c4ncc(Br)cc4CCc4cc(Cl)cc(Br)c43)CC2)CC1 (configuration not stated)
*A* TRUE

*Q* Let us now turn to CN(C)c1ccc(C(=O)NCCCCCCC(=O)NO)cc1
*A* FALSE

*Q* Let us now turn to Nc1ncc(-c2ccnc(Nc3ccncc3)n2)c(CC2CC2)n1
*A* FALSE

*Q* Let us now turn to CCCCNc1ncc2c(-c3ccc(CN4CCN(C)CC4)cc3)cn(C3CCC(O)CC3)c2n1.Cl (configuration not stated)
*A* TRUE

*Q* Let us now turn to Cl.NCCOCCOCCNC(=O)Cc1ccc(Nc2nc(NCc3ccc(F)cc3)nc(NCC3CCCCC3)n2)cc1
*A* FALSE

*Q* Let us now turn to CNC(C)C(=O)NC(C(=O)N1CCCC1c1nc(C(=O)c2ccc(F)cc2)cs1)C1CCCCC1 (configuration not stated)
*A* TRUE

*Q* Let us now turn to Cc1sc2c(c1C)C(c1ccc(Cl)cc1)=NC(CC(=O)NCCCCNC(=O)COc1cccc3c1C(=O)N(C1CCC(=O)NC1=O)C3=O)c1nnc(C)n1-2 (configuration not stated)
*A* FALSE

*Q* Let us now turn to C#Cc1cccc(Nc2ncnc3cc(OC)c(OCCCCCCC(=O)NO)cc23)c1
*A* FALSE

*Q* Let us now turn to CCS(=O)(=O)Nc1ccc2c(c1)/C(=C(/Nc1ccc(CN3CCCCC3)cc1)c1ccccc1)C(=O)N2
*A* TRUE

*Q* Let us now turn to CC/C(=C(\c1ccc(O)cc1)c1ccc(OCCNC)cc1)c1ccccc1.Cl
*A* TRUE

*Q* Let us now turn to O=C(/C=C/c1ccccc1)NC(NC(=S)Nc1ccc(Cl)cc1)C(Cl)(Cl)Cl (configuration not stated)
*A* FALSE

*Q* Let us now turn to CS(=O)(=O)O.Fc1ccc(C2CCNCC2COc2ccc3c(c2)OCO3)cc1 (configuration not stated)
*A* FALSE

*Q* Let us now turn to Cc1cc(O)c(-c2ccc(C(C)CN(C)C)cc2)c2c1[nH]c(=O)c1sccc12.Cl.Cl (configuration not stated)
*A* FALSE

*Q* Let us now turn to CCc1ccc(OCc2ccccc2C(=O)Nc2ccc3nc(C)cc(N)c3c2)cc1.Cl
*A* TRUE

*Q* Let us now turn to C=Cc1c(C)c2cc3nc(cc4[nH]c(cc5nc(cc1[nH]2)C(C)=C5CCC(=O)O)c(CCC(=O)OC)c4C)C1(C)C3=CC=C(C(=O)OC)C1C(=O)OC (configuration not stated)
*A* TRUE

*Q* Let us now turn to O=C(NO)c1cnc(NC2(c3ccccc3)CC2)nc1
*A* FALSE

*Q* Let us now turn to CCS(=O)(=O)N1CCN(c2ccc(Nc3ncc(C(N)=O)c(NC4CC4)n3)cc2)CC1.Cl
*A* TRUE

*Q* Let us now turn to Cc1nc(Nc2cnn(C3CCNCC3)c2)nc2c1N(C)C(=O)c1cc3ccccc3cc1N2C
*A* FALSE

*Q* Let us now turn to CN(CCNCc1cn(Cc2ccc(Cl)cc2)nn1)CCNc1ccnc2cc(Cl)ccc12.O=C(O)C(F)(F)F
*A* FALSE

*Q* Let us now turn to COc1ccc(-c2ccc3ncc4c(c3c2)n(-c2ccc(N3CCNCC3)c(C(F)(F)F)c2)c(=O)n4C)cn1.O=C(O)/C=C\C(=O)O
*A* TRUE

*Q* Let us now turn to CN(C)C(CCOc1cccc2ccccc12)c1ccccc1.Cl (configuration not stated)
*A* TRUE

*Q* Let us now turn to CN(CCNc1ccnc2cc(Cl)ccc12)CCNc1ccnc2cc(Cl)ccc12.Cl.Cl.Cl
*A* FALSE

*Q* Let us now turn to CC(Oc1ccc2[nH]nc(/C=C/c3cnn(CCO)c3)c2c1)c1c(Cl)cncc1Cl (configuration not stated)
*A* TRUE

*Q* Let us now turn to O=C(CCCCCCNC(=O)c1cnc(N(c2ccccc2)c2ccccc2Cl)nc1)NO
*A* FALSE

*Q* Let us now turn to O=C(CCCCCN1C(=O)c2cccc3cccc(c23)C1=O)NO
*A* FALSE

*Q* Let us now turn to Cc1sc2c(c1C)C(c1ccc(Cl)cc1)=N[C@@H](CC(=O)NCCCCCCCCNC(=O)COc1cccc3c1C(=O)N(C1CCC(=O)NC1=O)C3=O)c1nnc(C)n1-2 (some centres not stated)
*A* FALSE

*Q* Let us now turn to COc1cc(OC)cc(N(CCNC(C)C)c2ccc3ncc(-c4cnn(C)c4)nc3c2)c1
*A* FALSE
